- experimentalDetails: Binding affinity to 5' Cy5 end-labeled DNA hairpin (unknown origin) incubated for 30 mins in the presence of RNase L by microscale thermophoresis analysis
readoutName: Kd (nM)
Lab book: enter the figure in nM, no units written.

Entry `CN1CCN(c2ccc3nc(-c4ccc5[nH]c(-c6cccc(OCCCC(=O)NCCCN=[N+]=[N-])c6)nc5c4)[nH]c3c2)CC1` ; Kd = 620

---

- experimentalDetails: Binding affinity to 5' Cy5-labeled Pre-miR-210 RNA (unknown origin) incubated for 30 mins in the presence of RNase L by microscale thermophoresis analysis
Exercise: state measured Kd for each of the molecules provided.
Lab book: enter the figure in nM, no units written.

Entry `CN1CCN(c2ccc3nc(-c4ccc5[nH]c(-c6cccc(OCCCC(=O)NCCCN=[N+]=[N-])c6)nc5c4)[nH]c3c2)CC1` ; Kd = 160

Entry CN1CCN(c2ccc3nc(-c4ccc5[nH]c(-c6cccc(OCCCC(=O)NCCCOCC(O)COP(=O)(O)O[C@@H]7[C@H](O)[C@@H](COP(=O)(O)O[C@@H]8[C@H](O)[C@@H](COP(=O)(O)O[C@@H]9[C@H](O)[C@@H](COP(=O)(O)O[C@@H]%10[C@H](O)[C@@H](COP(=O)(O)O)O[C@H]%10n%10cnc%11c(N)ncnc%11%10)O[C@H]9n9cnc%10c(N)ncnc%109)O[C@H]8n8cnc9c(N)ncnc98)O[C@H]7n7cnc8c(N)ncnc87)c6)nc5c4)[nH]c3c2)CC1 (some centres not stated) ; Kd = 340
